Entries and their measured TGI follow.
Test system: SW-620 colon
Experiment: NCI tumour cell line growth inhibition, 48 h

Record excerpt, results attached:
* CC(=O)OC(C)(C)/C(C)=C/C(=O)O[C@H]1C(=O)O[C@@H]2C[C@H]3[C@H](C)C(=O)C(O[C@@H]4O[C@H](CO)[C@@H](O)[C@H](O)[C@H]4O)=C[C@]3(C)[C@H]3[C@@H](O)[C@H](O)[C@@]4(C(=O)O)OC[C@]32[C@@H]14 | > 100 µM
* O=C(NCCCO)c1cc(Cl)ccc1O | 14.3 µM
* Cc1cc(Cc2cc(C)c(NC(=O)C(=O)C3CCC4=C(SC5C=CC=CC5N4)C3=O)c(C(C)C)c2)cc(C(C)C)c1NC(=O)C(=O)C1CCC2=C(SC3C=CC=CC3N2)C1=O (stereo not drawn) | > 100 µM

SW-620 colon assay, compound c1ccc(CN2COc3c(ccc4c3OCN(Cc3ccccc3)C4)C2)cc1 , recorded TGI = > 100 µM

----------
Tested on: K-562 leukemia
Test: NCI tumour cell line growth inhibition, 48 h
Entries and their measured TGI follow.

Record excerpt, results attached:
* NCCOCCOCCNc1nc(-c2ccccc2)nc(N2CCN(c3ccccn3)CC2)n1 | 22.9 µM
* O=C(Cc1ccc(F)c(F)c1)Nc1cc(C2(C(F)(F)F)CC2)nn1Cc1ccccc1 | > 15 µM
* CCOC(=O)c1cc2c(cc1Cl)SC(N(c1ccc(OC)cc1)S(=O)(=O)c1ccc(Cl)cc1)=NS2(=O)=O | > 100 µM
* Cc1ccc(/C(O)=C/C(=O)C(=O)NC23CC4CC(CC(C4)C2)C3)cc1 | > 10 µM

The recorded TGI for entry CC[C@@]1(C)CCC2c3ccc(O)cc3CC[C@H]2C1C (stereo not given in full) equals 23.3 µM

----------
Entries and their measured TGI follow.
Test system: SK-MEL-5 melanoma
Test: NCI tumour cell line growth inhibition, 48 h

Record excerpt, results attached:
• O=C(CCN1CCN(c2ccccc2)CC1)N1CCc2c([nH]c3ccccc23)C1c1cccnc1 (stereo not given) = 28.9 µM
• Cc1cc(/C=C/c2cc[n+](C)c3ccccc23)c(O)c2ncccc12 = 4.98 µM
• N=c1ccn(O)cc1/C=C1/C(=O)Nc2ccccc21 = > 100 µM
• N#Cc1c(-c2ccc(Cl)cc2)[nH]c(=O)n(C2OC(CO)C(O)C(O)C2O)c1=O (stereo not given) = > 100 µM
• CC1=C(c2ccccc2)NC(=S)C(C)C(c2ccccc2)=N1 (stereo not given) = 82.9 µM

The recorded TGI for entry N#CC(=N)c1ncn(-c2ccc(N)cc2)c1N equals > 100 µM

The recorded TGI for entry c1ccc(CN2COc3c(ccc4c3OCN(Cc3ccccc3)C4)C2)cc1 equals 2.04 µM

The recorded TGI for entry C/C(CC(=O)Nc1ccc(C)c(C)c1)=N\NC(N)=O equals > 100 µM

The recorded TGI for entry CCOC(=O)C1=NN(c2ccc([N+](=O)[O-])cc2)[C@@]2(C)C[C@]3(c4ccccc4)N(c4ccc([N+](=O)[O-])cc4)N=C(C(=O)OCC)N3c3ccccc3N12 equals > 100 µM

The recorded TGI for entry O=C(CN1CCOCC1)c1ccc2c(c1)oc(=O)n2CCN1CCOCC1 equals > 100 µM

----------
Entries and their measured TGI follow.
Test system: OVCAR-4 ovarian
Assay: NCI tumour cell line growth inhibition, 48 h

• S=C1CCSc2c(ccc3ccccc23)N1 = > 100 µM
• COc1ccc(/C=C2\CCS(=O)(=O)c3ccccc3C2=O)cc1 = 58.8 µM
• Cc1ccc(S(=O)(=O)NC2(C=O)CCCC3CCCCC32)cc1 (stereo unspecified) = > 100 µM
• NC(=O)Cc1nc2c(N)ncnc2n1C1OC(CO)C(O)C1O (stereo unspecified) = > 100 µM
• O=C1C(=O)N(c2cccc(C(F)(F)F)c2)C(=S)N1c1ccccc1 = > 100 µM

We now examine a further molecule.
The recorded TGI for entry CC1(C)OC(=O)N(c2ccccc2)C12C=Cc1cccc([N+](=O)[O-])c1O2 (stereo unspecified) equals > 100 µM

----------
Entries and their measured TGI follow.
System: DU-145 prostate
Test: NCI tumour cell line growth inhibition, 48 h

Record excerpt, results attached:
* Cc1nc2ccccc2c(/C=C/c2ccc(Cl)cc2)c1C(=O)/C=C/c1ccc(C(F)(F)F)cc1 | 2.53 µM
* CC(C)=CCC[C@](C)(O)[C@H]1CC[C@]2(C)[C@@H]1CC[C@@H]1[C@@]3(C)CC/C(=N/O)C(C)(C)[C@@H]3CC[C@]12C | > 100 µM
* CS(=O)(=O)c1ccc(N=C/C=C/Nc2ccc(S(C)(=O)=O)cc2)cc1 | > 100 µM
* Cc1ccc(/C(O)=C/C(=O)C(=O)NC23CC4CC(CC(C4)C2)C3)cc1 | > 10 µM
* C=C1CCC2C3(C)COC(c4ccccc4)OC3CCC2(C)C1/C=C/C1=CCOC1=O (centres undefined) | 12.8 µM
* N#Cc1c(-c2ccc(Cl)cc2)[nH]c(=O)n(C2OC(CO)C(O)C(O)C2O)c1=O (centres undefined) | > 100 µM
* CN(C)C(c1ccccc1)C1COC2Cc3ccccc3C1O2 (centres undefined) | > 100 µM
* COc1c2ccoc2c(OC)c2oc(=O)ccc12 | > 100 µM

We now examine a further molecule.
The recorded TGI for entry O=C(Nc1ccncc1)C(=O)c1cn(S(=O)(=O)c2ccc(Cl)cc2)c2ccccc12 equals > 49.7 µM

----------
Tested on: SF-268 CNS
Experiment: NCI tumour cell line growth inhibition, 48 h
MEASURED_ENDPOINT: GI50

Record excerpt, results attached:
• O=c1cc(-c2cccc3c2Sc2ccccc2S3)oc(N2CCOCC2)c1 = 7.76 µM
• CC(C)([NH-])CO.CC(C)([NH-])CO.[Cl][Cd][Cl] = 18.4 µM
• Fc1ccc2c(c1)c(-c1nc(-c3c[nH]c4ncccc34)cs1)cn2CCCCN1CCCCC1 = 1.63 µM
• COc1cc(C(=O)N2CCN(c3ncnc4ccccc34)CC2)c(N)cc1OCc1ccccc1 = 14.1 µM
• COc1cccc(NC(=O)c2sc3nc(C)c(C(O)c4ccccc4)cc3c2N)c1 (centres undefined) = 1.05 µM

The recorded GI50 for entry Cc1nc2ccccc2c(/C=C/c2ccc(Cl)cc2)c1C(=O)/C=C/c1ccc(C(F)(F)F)cc1 equals 0.872 µM

The recorded GI50 for entry CCN(CC)CCCNCc1cc(-c2ccccc2)nc2ccccc12 equals 4.72 µM

The recorded GI50 for entry C=C1CCC2C3(C)COC(c4ccccc4)OC3CCC2(C)C1/C=C/C1=CCOC1=O (centres undefined) equals 5.22 µM

The recorded GI50 for entry CC(C)=CCC[C@](C)(O)[C@H]1CC[C@]2(C)[C@@H]1CC[C@@H]1[C@@]3(C)CC/C(=N/O)C(C)(C)[C@@H]3CC[C@]12C equals 21.5 µM

----------
Test system: NCI-H23 lung
Experiment: NCI tumour cell line growth inhibition, 48 h
Entries and their measured TGI follow.

Record excerpt, results attached:
- COc1cc(C2SCC(=O)N2c2ncc(C)s2)cc(OC)c1OC (stereo unspecified): > 50 µM
- O=C(Nc1ccc(-n2ccc3c(NC(=O)c4ccccc4)ncnc32)cc1)Nc1ccc(Cl)c(Cl)c1: 22.3 µM
- O=C(c1ccccc1)C1OC1c1ccc([N+](=O)[O-])cc1 (stereo unspecified): 14.1 µM
- C[n+]1c2cc(N)ccc2cc2ccc(N)cc21: 4.49 µM [middle of 4 runs]
- Oc1ccc2ccccc2c1N=Nc1ccsc1: > 100 µM

We now examine a further molecule.
The recorded TGI for entry S=C1CCSc2c(ccc3ccccc23)N1 equals > 100 µM

----------
Tested on: SNB-75 CNS
Assay: NCI tumour cell line growth inhibition, 48 h; in the data active = GI50 below about 0.43 µM; inactive = the rest
Outcomes you can answer with include only these: active, inactive

Example entries begin here.
- O=C(Nc1ccncc1)C(=O)c1cn(S(=O)(=O)c2ccc(Cl)cc2)c2ccccc12: inactive
- Cc1csc(/C=C/C(=O)c2nnn(-c3ccnc4c(C(F)(F)F)cccc34)c2C)c1: inactive
- CC(=O)C1=C(O)C=C2Oc3c(C(=O)/C=C/c4c(Cl)cccc4Cl)c(O)c(C)c(O)c3[C@]2(C)C1=O: inactive

Input: Which result was noted for this molecule in the test: CCC/C(=N\NC(=S)N1CC2CCC(CC2)C1)c1ccccn1
Output: inactive

Input: Which result was noted for this molecule in the test: c1ccc(CN2COc3c(ccc4c3OCN(Cc3ccccc3)C4)C2)cc1
Output: inactive

Input: Which result was noted for this molecule in the test: Nc1c(C(=O)Nc2cccc(F)c2)sc2nc3c(cc12)C(=O)CCC3
Output: active

Input: Which result was noted for this molecule in the test: CCC(=C/[C@H](C)C/C=C/C(C)=C/[C@@H](C)C(=O)[C@@H](C)[C@H](O)[C@@H](C)CC)/C=C/[C@@H]1OC(=O)C=C[C@H]1C
Output: active

Input: Which result was noted for this molecule in the test: CC(=O)OC(C)(C)/C(C)=C/C(=O)O[C@H]1C(=O)O[C@@H]2C[C@H]3[C@H](C)C(=O)C(O[C@@H]4O[C@H](CO)[C@@H](O)[C@H](O)[C@H]4O)=C[C@]3(C)[C@H]3[C@@H](O)[C@H](O)[C@@]4(C(=O)O)OC[C@]32[C@@H]14
Output: inactive

Input: Which result was noted for this molecule in the test: O=C(Nc1ccc(-n2ccc3c(NC(=O)c4ccccc4)ncnc32)cc1)Nc1ccc(Cl)c(Cl)c1
Output: inactive

Input: Which result was noted for this molecule in the test: COc1ccc2c(=O)cc(C(Cl)(Cl)Cl)oc2c1
Output: active

Input: Which result was noted for this molecule in the test: C=CC(=O)Nc1cc(C)ccc1Nc1nc(Nc2cc(OC)ncc2C)ncc1C(F)(F)F
Output: active

Input: Which result was noted for this molecule in the test: O=C(COc1cc(O)c2c(=O)cc(-c3ccccc3)oc2c1)Nc1ccccc1C(F)(F)F
Output: inactive

Value source: PubChem BioAssay (NCI)
